Data origin: ChEMBL document CHEMBL1151225

# System: DNA polymerase beta (Homo sapiens, UniProt P06746)
Item-by-item account of IC50
Measured Property: IC50

C=CCc1cc2c(c(OC)c1OC)OCO2 [DILLAPIOLE] ... > 50 µM
C=CC[C@@]12C=C(OC)C(=O)[C@](OC)([C@H](c3ccc4c(c3)OCO4)[C@H]1C)[C@@H]2O ... > 50 µM
COc1c(/C=C/CO)cc2c(c1OC)OCO2 ... > 50 µM
